- assayedTarget: human 5-HT2A receptor (Homo sapiens, UniProt P28223)
- Construct: expressed in transfected cells; host or cells: CHO-K1
- Sequence (P28223 whole entry): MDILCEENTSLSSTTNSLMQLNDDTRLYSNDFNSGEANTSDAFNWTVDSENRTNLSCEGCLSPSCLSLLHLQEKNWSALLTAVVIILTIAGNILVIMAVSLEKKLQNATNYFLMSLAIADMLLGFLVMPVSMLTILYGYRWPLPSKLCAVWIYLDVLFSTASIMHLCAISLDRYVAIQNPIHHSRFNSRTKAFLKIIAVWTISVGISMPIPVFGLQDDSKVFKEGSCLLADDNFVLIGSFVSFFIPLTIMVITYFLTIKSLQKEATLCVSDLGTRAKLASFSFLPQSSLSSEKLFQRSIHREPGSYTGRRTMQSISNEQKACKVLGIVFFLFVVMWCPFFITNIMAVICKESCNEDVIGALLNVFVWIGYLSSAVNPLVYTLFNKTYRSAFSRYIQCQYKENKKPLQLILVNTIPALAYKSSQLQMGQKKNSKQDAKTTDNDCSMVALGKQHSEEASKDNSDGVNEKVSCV
- testSummary: Human 5-HT2A functional assay (calcium mobilisation in CHO-K1 cells, FLIPR)
- Assay type: cell-based
- conditionSummary: based on agonism: EC50 5-HT2A/EC50 5-HT2C
measurementType: Selectivity over 5-HT2A

{"mol": "COC[C@@H]1C[C@@H]2CNCCN2c2cc(C(F)(F)F)cc(Cl)c2O1", "measurementType": "Selectivity over 5-HT2A", "readoutValue": "+++ (>100)"}
{"mol": "COC[C@@H]1C[C@@H]2CNCCN2c2c(F)c(F)c(F)c(Cl)c2O1.Cl", "measurementType": "Selectivity over 5-HT2A", "readoutValue": "+++ (>100)"}
{"mol": "Cl.[2H]C([2H])([2H])OC[C@@H]1C[C@@H]2CNCCN2c2cc(F)cc(Cl)c2O1", "measurementType": "Selectivity over 5-HT2A", "readoutValue": "+++ (>100)"}
{"mol": "COC[C@@H]1C[C@@H]2CNCCN2c2cc(F)cc(C#N)c2O1.Cl", "measurementType": "Selectivity over 5-HT2A", "readoutValue": "+++ (>100)"}
{"mol": "C#Cc1cc(F)c(F)c2c1O[C@H](COC)C[C@@H]1CNCCN21.Cl", "measurementType": "Selectivity over 5-HT2A", "readoutValue": "+++ (>100)"}
{"mol": "COC[C@@H]1C[C@@H]2CNCCN2c2c(cc(F)c(F)c2F)O1.Cl", "measurementType": "Selectivity over 5-HT2A", "readoutValue": "+++ (>100)"}
{"mol": "Cl.OC[C@@H]1C[C@@H]2CNCCN2c2c(F)c(F)cc(Cl)c2O1", "measurementType": "Selectivity over 5-HT2A", "readoutValue": "+++ (>100)"}

-- ask Using the record for "COC[C@@H]1C[C@@H]2CNCCN2c2cc(Cl)cc(Cl)c2O1" , state its measured Selectivity over 5-HT2A.
-- reply +++ (>100)
